The reported numbers originate from patent US20260083865A1.

assayed system: Fc-fusion protein of human PSMA (hPSMA-Fc) (Homo sapiens, UniProt Q04609)
Construct: purchased Acro Biosystems PSA-H5264
Sequence (Q04609 44-750 limits assumed): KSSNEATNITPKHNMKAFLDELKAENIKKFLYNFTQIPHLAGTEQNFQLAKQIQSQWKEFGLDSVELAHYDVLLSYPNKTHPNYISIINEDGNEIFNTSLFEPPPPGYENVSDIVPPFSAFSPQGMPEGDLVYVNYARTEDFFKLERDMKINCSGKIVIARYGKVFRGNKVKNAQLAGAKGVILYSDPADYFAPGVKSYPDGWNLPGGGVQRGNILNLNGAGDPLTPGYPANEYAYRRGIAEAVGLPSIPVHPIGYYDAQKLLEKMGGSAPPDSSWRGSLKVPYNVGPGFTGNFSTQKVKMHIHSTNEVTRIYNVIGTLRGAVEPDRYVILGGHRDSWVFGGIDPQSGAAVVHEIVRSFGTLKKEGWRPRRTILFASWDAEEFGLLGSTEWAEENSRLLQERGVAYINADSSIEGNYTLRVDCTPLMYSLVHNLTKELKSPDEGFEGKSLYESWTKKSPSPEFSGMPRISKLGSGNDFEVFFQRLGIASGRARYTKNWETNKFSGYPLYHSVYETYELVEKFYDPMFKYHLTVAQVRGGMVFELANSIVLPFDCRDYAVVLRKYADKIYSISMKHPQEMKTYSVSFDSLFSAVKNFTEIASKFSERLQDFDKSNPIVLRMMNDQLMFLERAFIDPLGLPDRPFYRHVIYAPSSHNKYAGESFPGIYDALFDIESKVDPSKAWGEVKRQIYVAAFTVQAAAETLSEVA
assay: Surface plasmon resonance assay (Biacore T200, single cycle kinetic)
Type: binding
condition notes: pKD category for PSMA SPR activity assay, hPSMA-Fc, 25° C.; read-out: pKD CAT (converted)
Numbered stars: 1 amine (or outer) side, 2 acyl side, 3 side chain; on linkers, the order of the positions; unused ones are H or OH. Bridge positions count the residues as written; N and C are the ends. Square brackets hold non-standard residues; d marks the D form. Peptide text beside a SMILES is read from it. * marks the point of attachment. DOTA = O=C(O)CN1CCN(CC(=O)O)CCN(CC(=O)*)CCN(CC(=O)O)CC1; Phe(4-Cl) = N[C@@H](Cc1ccc(Cl)cc1)C(=O)O; Thz(5,5-Me2) = CC1(C)SCN[C@@H]1C(=O)O; X1 = O=C(CC1CCN([*:1])CC1)[*:2]; Tle = CC(C)(C)[C@H](N)C(=O)O; Aib = CC(C)(N)C(=O)O; CO = O=C([*:1])[*:2]; X8 = O=C(CC1CCNCC1)*; NHBu = CCCCN*
endpoint label: Kd

// below: answered compounds
CC(=O)N[C@H](C(=O)NC(C)(C)C(=O)N[C@@H](Cc1ccc(Cl)cc1)C(=O)N[C@H]1CSSC[C@@H](C(=O)N[C@H](C(N)=O)C(C)(C)C)NC(=O)[C@H](CC(N)=O)NC(=O)C(C)(C)NC(=O)[C@H](CCCNC(=N)N)NC(=O)[C@H](CCCCN)NC1=O)[C@@H](C)O [PSM-0367] (Ac-T[Aib][Phe(4-Cl)]CKR[Aib]NC[Tle]-NH2; disulfide 4-9) = < 12.6 nM
CCCCNC(=O)N[C@H](C(=O)NC(C)(C)C(=O)N[C@@H](Cc1ccc(Cl)cc1)C(=O)N[C@H]1CSSC[C@@H](C(=O)N[C@H](C(=O)N[C@H](C(=O)N2CCC(CC(=O)N[C@H](CCCCNC(=O)CN3CCN(CC(=O)O)CCN(CC(=O)O)CCN(CC(=O)O)CC3)C(N)=O)CC2)[C@@H](C)O)C(C)(C)C)NC(=O)[C@H](CC(N)=O)NC(=O)C(C)(C)NC(=O)[C@H](CCCNC(=N)N)NC(=O)[C@H](CCCCN)NC1=O)[C@@H](C)O [PSM-0371] ({NHBu-CO}-T[Aib][Phe(4-Cl)]CKR[Aib]NC[Tle]T[X1][dK](DOTA)-NH2; disulfide 4-9) = < 12.6 nM
CC(=O)N[C@H](C(=O)NC(C)(C)C(=O)N[C@@H](Cc1ccccc1)C(=O)N[C@H]1CSSC[C@@H](C(=O)N[C@H](C(=O)N[C@H](C(=O)N[C@@H](CC(=O)O)C(N)=O)[C@@H](C)O)C(C)(C)C)NC(=O)[C@H](CC(N)=O)NC(=O)[C@H]2N(CSC2(C)C)C(=O)[C@H](CCCNC(=N)N)NC(=O)[C@H](CCCCN)NC1=O)[C@@H](C)O [PSM-0532] (Ac-T[Aib]FCKR[Thz(5,5-Me2)]NC[Tle]TD-NH2; disulfide 4-9) = < 12.6 nM
CC(=O)N[C@H](C(=O)NC(C)(C)C(=O)N[C@@H](Cc1ccccc1)C(=O)N[C@H]1CSSC[C@@H](C(=O)N[C@H](C(=O)N[C@H](C(=O)N[C@@H](CC(=O)O)C(N)=O)[C@@H](C)O)C(C)(C)C)NC(=O)[C@H](CC(N)=O)NC(=O)[C@H](C)NC(=O)[C@H](CCCNC(=N)N)NC(=O)[C@H](CCC(N)=O)NC1=O)[C@@H](C)O [PSM-0435] (Ac-T[Aib]FCQRANC[Tle]TD-NH2; disulfide 4-9) = 12.6 to 126 nM

Switching to the query record.
Problem: State, in one line, measured Kd of C[C@@H](O)[C@H](NC(=O)CC1CCNCC1)C(=O)NC(C)(C)C(=O)N[C@@H](Cc1ccccc1)C(=O)N[C@H]1CSSC[C@@H](C(=O)N[C@H](C(=O)N[C@H](C(=O)N2CCC(CC(=O)N[C@H](CCCCNC(=O)CN3CCN(CC(=O)O)CCN(CC(=O)O)CCN(CC(=O)O)CC3)C(N)=O)CC2)[C@@H](C)O)C(C)(C)C)NC(=O)[C@H](CC(N)=O)NC(=O)C(C)(C)NC(=O)[C@H](CCCNC(=N)N)NC(=O)[C@H](CCCCN)NC1=O [PSM-0378] (X8-T[Aib]FCKR[Aib]NC[Tle]T[X1][dK](DOTA)-NH2; disulfide 4-9)
Solution: < 12.6 nM
